Molecular target: bromodomain BRD4 (44-168), BRD4 (333-460), and BRD4 (1-477 or 44-460) (Homo sapiens)
Construct: BRD4(44-168), BRD4(333-460), BRD4(44-460), BRD4(1-477), O60885-1; fused on or other part: N-terminal BirA biotinylation motif, biotinylated; The TVMV-cleavable His6 tag is removed, except in some BRD4(44-460) runs detected with anti-His terbium cryptate
Test: Time Resolved Fluorescence Resonance Energy Transfer (TR-FRET) binding assay
Conditions: one of the FRET assays described
pIC50: −log10 of the molar value.
property measured: pIC50

Cc1noc(C)c1-c1cc(C(N)=O)c2c3ccc(C(=O)c4cccc(F)c4)cc3n(Cc3ccccc3)c2c1 [Example 190] | > 6.30
CNC(=O)c1cc(-c2c(C)noc2C)cc2c1c1cc(C(=O)N3CC(F)C3)ccc1n2C(C)c1ccccc1 (centres unmarked) [Example 113] | > 7.30
Cc1noc(C)c1-c1cc(C(N)=O)c2c3cc(N(CCO)CCO)ccc3n(Cc3ccccc3)c2c1 [Example 140] | > 7.30
Cc1noc(C)c1-c1ccc2c3cc(C(=O)N4CCOCC4)ccc3n(CC3CC3)c2c1 [Example 22] | > 6.30
Cc1noc(C)c1-c1cc(C(N)=O)c2c3cc(C(=O)N4CCOCC4)ccc3n(Cc3ccccc3)c2c1 [Example 47] | > 7.30

// assay bromodomain BRD4 (44-168), BRD4 (333-460), and BRD4 (1-477 or 44-460) (Homo sapiens), entry Cc1noc(C)c1-c1cc(C(N)=O)c2c3cc(C(=O)N4CC[C@@H](F)C4)ccc3n(Cc3ccccc3)c2c1 [Example 60] , pIC50 value = > 7.30

// assay bromodomain BRD4 (44-168), BRD4 (333-460), and BRD4 (1-477 or 44-460) (Homo sapiens), entry Cc1noc(C)c1-c1cc(C(N)=O)c2c3cc(NS(C)(=O)=O)ccc3n(Cc3ccccc3)c2c1 [Example 143] , pIC50 value = > 7.30
